# procedure text: NCI Yeast Anticancer Drug Screen. Data for the mlh1 rad18 strain (AID 175)
# study conditions: S. cerevisiae mlh1 rad18 strain growth inhibition; at 50.0 µM
About 79,000 compounds went through this panel and 15% of them were active in at least one assay; those are over-represented in the sample as a whole. Activity calls are given as the source filed them. No stated cut-off is given here; in the data, active means growth inhibition above about 70%; inactive means the rest.
A correct response names exactly one class from 1.0 (active), 0.0 (inactive)

These solved cases illustrate the format of a correct answer.
[
  {
    "molecule": "Clc1ccnnc1Cl",
    "cat": 0.0
  },
  {
    "molecule": "c1ccc2cc(B(c3cccc4ccccc34)c3cccc4ccccc34)ccc2c1",
    "cat": 0.0
  },
  {
    "molecule": "Cc1ccc(-c2nn[nH]n2)cc1[N+](=O)[O-]",
    "cat": 0.0
  },
  {
    "molecule": "O=C(NNC(=O)c1ccccc1Br)c1ccccc1Br",
    "cat": 0.0
  }
]

Assay outcome for `N#Cc1c2ccccc2c(C#N)c2ccccc12` : what was it? 0.0

Assay outcome for `Cc1c(C)c(C)c(S(=O)(=O)NCCCNS(=O)(=O)c2c(C)c(C)c(C)c(C)c2C)c(C)c1C` : what was it? 0.0

Assay outcome for O=C(O)CCC(NC(=O)CCC(NC(=O)OCc1ccccc1)C(=O)OCc1ccccc1)C(=O)OCc1ccccc1 (centres undefined) : what was it? 0.0

Assay outcome for CCOc1ccc(C2OCC(C)O2)cc1OC (centres undefined) : what was it? 0.0

Assay outcome for `CNc1ccc(OC)cc1` : what was it? 0.0

* * *

# procedure text: NCI Yeast Anticancer Drug Screen. Data for the mec2-1 strain (AID 157)
# study conditions: S. cerevisiae mec2-1 strain, at 50.0 µM, active compounds read high
This is part of a sample that, as a whole, favours compounds with a hit. Of some 79,000 tested, about 15% had one in any assay. Activity calls are given as the source filed them. No stated cut-off is given here; in the data, active means growth inhibition above about 70%; inactive means the rest.
Measured growth inhibition of individual entries

Some solved entries appear below for comparison.
[
  {
    "compound": "CCN(CC)CCCNc1ccc2ncn3c4ccc(O)cc4c(=O)c1c23",
    "growth inhibition": "-36.3% (inactive)"
  },
  {
    "compound": "Cc1ccc2[nH]c(C)c(C(=O)c3cccnc3)c2c1",
    "growth inhibition": "0.85% (inactive)"
  }
]

Consider the compound c1ccc2c(SCN3CCOCC3)cccc2c1 (tested in a mixture with another compound) and give its measured growth inhibition. 21.6% (inactive)

Consider the compound `C=CCNC(=S)N/C=C(/C#N)C(=O)OC` and give its measured growth inhibition. -9.75% (inactive)

Consider the compound `CNc1nc(C(F)(F)F)nc2[nH]ncc12` and give its measured growth inhibition. 17.9% (inactive)

Consider the compound `Cc1cc(NN)c2cc3c(cc2n1)OCO3` and give its measured growth inhibition. -2.6% (inactive)

Consider the compound `Cc1cc(S(=O)(=O)Nc2n[nH]c(N)n2)c(SCC(=O)O)cc1Cl` and give its measured growth inhibition. -0.3% (inactive)

Consider the compound `CC(C)CN(CC(=O)Nc1cccc(Cl)c1)CC(C)C` and give its measured growth inhibition. 11.9% (inactive)

Consider the compound `N/C(=N\OC(=O)Nc1ccc(CSc2ccc(Cl)cc2)o1)c1ccccn1` and give its measured growth inhibition. -22.8% (inactive)

Consider the compound `CCOC(=O)CCc1ccc(NC(=O)/C=C/c2ccc([N+](=O)[O-])o2)cc1` and give its measured growth inhibition. 29.1% (inactive)

Consider the compound `O=c1c(SCc2ccc(Cl)cc2Cl)c(SCc2ccc(Cl)cc2Cl)cnn1-c1ccccc1` and give its measured growth inhibition. -1.4% (inactive)

Consider the compound `NNC(=S)N/N=C/C(Cl)=C(\Cl)C(=O)O` and give its measured growth inhibition. -13.2% (inactive)

Consider the compound O=C1C(c2ccccc2)=C2c3ccccc3-c3ccccc3C2(O)C1c1ccccc1 (centres undefined) and give its measured growth inhibition. 94.8% (active)

Consider the compound `N#CCNC=O` and give its measured growth inhibition. 7.35% (inactive)

Consider the compound `N#CCCCCCCn1cnc2c(=S)nc[nH]c21` and give its measured growth inhibition. 9.55% (inactive)

Consider the compound O=c1cnn(C2OC(CO)C(O)C2O)c(=S)[nH]1 (centres undefined) and give its measured growth inhibition. -1.45% (inactive)

Consider the compound `O=c1oc(=O)c2ccccc2c2ccccc12` and give its measured growth inhibition. 6.85% (inactive)

Consider the compound `CCOc1ccc(/C=C2\N=C(c3ccc([N+](=O)[O-])cc3)OC2=O)cc1` and give its measured growth inhibition. 19.8% (inactive)

Consider the compound `C/C=C/CNc1ccc(C)cc1` and give its measured growth inhibition. 20.9% (inactive)

Consider the compound CCCCCCCCCC(=O)OCC1OC(n2cc(F)c(=O)[nH]c2=O)C(NC(=O)OCc2ccccc2)C(OC(=O)CCCCCCCCC)C1O (centres undefined) and give its measured growth inhibition. -10.2% (inactive)
